- study_target: T1, Pex13, P80667
- T1 sequence (P80667 295-386, looked up): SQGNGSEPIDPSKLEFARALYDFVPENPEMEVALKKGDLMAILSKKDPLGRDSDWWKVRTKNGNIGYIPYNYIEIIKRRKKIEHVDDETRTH
- assay_protocol: SPOT array
- run_parameters: median of control spots 1341
assay_readout: SPOT intensity

1: IVNKPLPPLPVAGSS
2: GTIARPLFLVVLFFI
3: RPKRRAPPPVPKKPS
4: LLIRWLILMPLVGSR
INPUT: Hey, can you sort those binders up there by SPOT intensity, smallest first? Provide the labels, sequenced as the question asks.
OUTPUT: 2, 3, 4, 1
